Cited source: paper PMC8693659

pIC50: −log10 of the molar value.
Notes on pIC50 obtained with SYK (Homo sapiens).
property.measured: pIC50

I = Cc1coc2c1C(=O)C(=O)c1c-2ccc2c(C)cccc12 [TanI, tanshinone I]
II = Cc1coc2c1C(=O)C(=O)c1c-2ccc2c1CCCC2(C)C [TanIIA, tanshinoneIIA]
Query: Pick one, I or II : lowest reported pIC50. Answer = label.
Response: II
